Molecular target: p110 γ (Mus musculus (Mouse), UniProt Q9JHG7)
Sequence (Q9JHG7 whole entry): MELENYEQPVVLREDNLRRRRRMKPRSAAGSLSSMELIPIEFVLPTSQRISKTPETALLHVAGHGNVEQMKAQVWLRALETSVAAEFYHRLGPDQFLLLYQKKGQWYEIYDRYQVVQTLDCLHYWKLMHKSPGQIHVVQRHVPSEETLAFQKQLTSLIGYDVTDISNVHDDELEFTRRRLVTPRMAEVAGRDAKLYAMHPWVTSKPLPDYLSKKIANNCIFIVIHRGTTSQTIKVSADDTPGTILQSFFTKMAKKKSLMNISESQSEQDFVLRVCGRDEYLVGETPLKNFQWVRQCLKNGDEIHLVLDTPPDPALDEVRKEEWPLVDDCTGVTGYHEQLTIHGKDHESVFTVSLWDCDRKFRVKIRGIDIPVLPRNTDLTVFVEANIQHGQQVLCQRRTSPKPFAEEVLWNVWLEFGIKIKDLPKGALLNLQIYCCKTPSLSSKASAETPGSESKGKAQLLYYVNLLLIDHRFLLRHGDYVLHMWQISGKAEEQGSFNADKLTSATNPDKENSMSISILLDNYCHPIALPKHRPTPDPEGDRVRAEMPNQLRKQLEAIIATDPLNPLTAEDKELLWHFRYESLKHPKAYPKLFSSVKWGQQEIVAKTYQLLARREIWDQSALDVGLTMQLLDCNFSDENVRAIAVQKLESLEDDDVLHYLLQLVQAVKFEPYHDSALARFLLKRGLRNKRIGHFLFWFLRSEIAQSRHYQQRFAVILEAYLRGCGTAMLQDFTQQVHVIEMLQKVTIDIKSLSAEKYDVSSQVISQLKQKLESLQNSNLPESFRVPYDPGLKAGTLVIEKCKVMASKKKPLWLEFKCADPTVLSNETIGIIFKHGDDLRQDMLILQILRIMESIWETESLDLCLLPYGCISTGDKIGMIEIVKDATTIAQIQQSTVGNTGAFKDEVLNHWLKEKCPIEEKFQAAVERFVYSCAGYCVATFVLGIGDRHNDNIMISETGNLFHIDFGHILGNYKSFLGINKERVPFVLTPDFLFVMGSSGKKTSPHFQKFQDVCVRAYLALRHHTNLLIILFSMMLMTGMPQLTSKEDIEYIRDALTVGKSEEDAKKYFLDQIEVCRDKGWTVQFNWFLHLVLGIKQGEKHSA
Assay: Raw264.7 p110 γ assay (PI3K-γ selective cellular assay, phospho-AKT)
Conditions: RAW264.7 cells stimulated with C5a, phospho-AKT
Source text: A compound's ability in selectively inhibiting PI3K-γ can be assessed using RAW264.7 macrophages. Briefly, serum-starved RAW264.7 cells are stimulated with a known GPCR agonist C5a. See, e.g., Camps et al., Nature Medicine (2005) 11(9):936-943. […] Thus, by monitoring the reduction of phospho-AKT in stimulated RAW 264.7 cells (using for example, phospho-AKT antibodies), a compound's potential efficacy in selectively inhibiting PI3Kγ can be assessed. […]
Listed here are molecules together with their documented IC50.

For orientation, consider the following solved cases.
{"molecule": "C[C@@H](NC(=O)c1c(N)nn2cccnc12)c1oc2cccc(C#Cc3cnn(C)c3)c2c(=O)c1-c1ccccc1 [Compound 103R]", "IC50": "100 to 10000 nM"}
{"molecule": "C[C@H](NC(=O)c1c(N)nn2cccnc12)c1nc2cccc(C#Cc3cnn(C)c3)c2cc1-c1ccccc1 [Compound 181S]", "IC50": "100 to 10000 nM"}
{"molecule": "C[C@@H](NC(=O)c1c(N)nn2cccnc12)c1nc2cccc(C#Cc3cnn(C)c3)c2cc1-c1ccccc1 [Compound 181R]", "IC50": "100 to 10000 nM"}
{"molecule": "C[C@H](NC(=O)c1c(N)nn2cccnc12)c1cc2cccc(C#Cc3cnn(C)c3)c2nc1-c1ccccc1 [Compound 175S]", "IC50": "1 to 50 nM"}

Qu. Which IC50 reading was recorded for the molecule CC(NC(=O)c1c(N)nn2cccnc12)c1oc2cccc(C#Cc3cnn(C)c3)c2c(=O)c1-c1ccccc1 (stereo not drawn) ?
Ans. 50 to 100 nM

Qu. Recorded IC50 for C[C@H](NC(=O)c1c(N)nn2cccnc12)c1oc2cccc(C#Cc3cnn(C)c3)c2c(=O)c1-c1ccccc1 [Compound 103S] , please?
Ans. 1 to 50 nM

====

Target: PI3K γ (Homo sapiens (Human), UniProt P48736)
Sequence (P48736 whole entry, canonical isoform): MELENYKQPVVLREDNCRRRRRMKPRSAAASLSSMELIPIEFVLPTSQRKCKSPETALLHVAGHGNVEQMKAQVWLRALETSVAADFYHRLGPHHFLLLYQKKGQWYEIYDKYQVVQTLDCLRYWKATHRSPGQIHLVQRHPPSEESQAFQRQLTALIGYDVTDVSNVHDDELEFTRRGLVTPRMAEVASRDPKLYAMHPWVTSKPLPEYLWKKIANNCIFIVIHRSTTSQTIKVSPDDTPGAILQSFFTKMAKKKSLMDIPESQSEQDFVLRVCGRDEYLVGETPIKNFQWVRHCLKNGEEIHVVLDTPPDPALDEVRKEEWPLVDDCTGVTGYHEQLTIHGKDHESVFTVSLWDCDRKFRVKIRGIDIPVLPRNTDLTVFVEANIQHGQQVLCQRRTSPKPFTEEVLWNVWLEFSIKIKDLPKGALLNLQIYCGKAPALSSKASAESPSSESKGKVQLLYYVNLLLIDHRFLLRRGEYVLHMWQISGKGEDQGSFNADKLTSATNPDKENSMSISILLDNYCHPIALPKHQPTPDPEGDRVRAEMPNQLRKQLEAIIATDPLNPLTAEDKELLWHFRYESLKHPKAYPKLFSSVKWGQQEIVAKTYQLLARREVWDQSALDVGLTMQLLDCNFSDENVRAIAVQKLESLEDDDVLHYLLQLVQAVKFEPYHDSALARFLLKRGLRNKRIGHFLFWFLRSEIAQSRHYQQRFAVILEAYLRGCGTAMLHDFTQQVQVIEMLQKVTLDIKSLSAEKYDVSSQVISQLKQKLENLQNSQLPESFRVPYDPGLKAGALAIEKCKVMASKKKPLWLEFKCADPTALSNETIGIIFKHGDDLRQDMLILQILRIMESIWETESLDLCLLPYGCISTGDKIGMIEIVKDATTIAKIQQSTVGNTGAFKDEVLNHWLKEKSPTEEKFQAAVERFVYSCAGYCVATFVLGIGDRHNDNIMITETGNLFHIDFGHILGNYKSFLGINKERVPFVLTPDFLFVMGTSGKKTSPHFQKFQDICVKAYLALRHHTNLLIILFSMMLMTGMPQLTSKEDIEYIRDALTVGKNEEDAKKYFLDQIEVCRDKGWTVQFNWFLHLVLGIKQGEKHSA
Assay: PI3-Kinase in vitro IC50 assay, γ isoform
Type: biochemical
Settings: ratio of PI3K δ IC50 to PI3K γ IC50
Description: A PI3-Kinase HTRF® assay kit (cat No. 33-016) purchased from Millipore Corporation is used to screen compounds provided herein. […] The biotinylated PIP3 and the GST-tagged PH domain recruited fluorophores (Streptavidin-Allophycocyanin and Europium-labeled anti-GST respectively) to form the fluorescence resonance energy transfer (FRET) architecture, generating a stable time-resolved FRET signal. […]
property.label: PI3K δ/PI3K γ IC50 (selectivity)

{"compound": "C[C@H](NC(=O)c1c(N)nn2cccnc12)c1cc2cccc(C#Cc3cnn(C)c3)c2nc1-c1ccccc1 [Compound 175S]", "system.name": "PI3K γ (Homo sapiens (Human), UniProt P48736)", "measured": "X (X = 10 to <50)"}
{"compound": "C[C@H](NC(=O)c1c(N)nn2cccnc12)c1oc2cccc(C#Cc3cnn(C)c3)c2c(=O)c1-c1ccccc1 [Compound 103S]", "system.name": "PI3K γ (Homo sapiens (Human), UniProt P48736)", "measured": "X (X = 10 to <50)"}

====

Biological target: PI3K γ (Homo sapiens (Human), UniProt P48736)
Test: PI3-Kinase in vitro IC50 assay, γ isoform
Type: biochemical
Conditions: ratio of PI3K δ IC50 to PI3K γ IC50
property.label: PI3K δ/PI3K γ IC50 (selectivity)

{"compound": "C[C@@H](NC(=O)c1c(N)nn2cccnc12)c1oc2cccc(C#Cc3cnn(C)c3)c2c(=O)c1-c1ccccc1 [Compound 103R]", "measured": "V (V = 0.1 to 1)"}
{"compound": "C[C@@H](NC(=O)c1c(N)nn2cccnc12)c1nc2cccc(C#Cc3cnn(C)c3)c2cc1-c1ccccc1 [Compound 181R]", "measured": "V (V = 0.1 to 1)"}
{"compound": "C[C@@H](NC(=O)c1c(N)nn2cccnc12)c1cc2cccc(C#Cc3cnn(C)c3)c2nc1-c1ccccc1 [Compound 175R]", "measured": "V (V = 0.1 to 1)"}
